- System: CP201
- test protocol: qHTS profiling for inhibitors of Plasmodium falciparum proliferation (AID 504749);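 also: 0% = DMSO vehicle and full inhibition = artemisinin control; nearly all actives have a fitted effect of over 60% in size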
- conditions: P. falciparum in erythrocytes, SYBR Green DNA, 72 h; series mostly up to 28.7 µM
Records with an inconclusive call do not appear. The source made the active and inactive calls. Calls follow the shape of the dose curve; as a rule, active = well fitted inhibition curve with a large enough effect; inconclusive = small, poorly fitted or top-dose-only effect; inactive = flat fitted curve, though single readings scatter.
property name: outcome

- S=P(N1CC1)(N1CC1)N1CC1: inactive
- O=C(O)c1cc(=O)[nH]c(=O)[nH]1: inactive
- CCn1cc(C(=O)O)c(=O)c2cc(F)c(N3CCNCC3)cc21: inactive

* * *

- test protocol: High-throughput drug toxicity screening in the BPDCN cell line Gen2.2 (AID 1224824);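 also: cells exposed to compounds for 48 h before reading; 100% = DMSO and 0% = bortezomib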
- conditions: Gen2.2 BPDCN cells; at 45.8 µM (top of the series) unless noted
property name: cell viability, % of control (lower = more cytotoxic) (%)
Field: numeric (%). Do not append units.

# input For the molecule CNS(=O)(=O)Cc1ccc2[nH]cc(CCN(C)C)c2c1 , give its reported cell viability, % of control (lower = more cytotoxic).
# output 219

# input For the molecule CC(C)(C)C(=O)OCOP(=O)(COCCn1cnc2c(N)ncnc21)OCOC(=O)C(C)(C)C , give its reported cell viability, % of control (lower = more cytotoxic).
# output 3.53

# input For the molecule NC(=O)c1ccc2[nH]ccc2c1 , give its reported cell viability, % of control (lower = more cytotoxic).
# output 140

# input For the molecule CCOC(=O)c1ccc(C#Cc2ccc3c(c2)C(C)(C)CCS3)nc1 , give its reported cell viability, % of control (lower = more cytotoxic).
# output 379

# input For the molecule NC(N)=NC(N)=NCCc1ccccc1 , give its reported cell viability, % of control (lower = more cytotoxic).
# output 88

* * *

- System: SKOV3
- test protocol: Primary qHTS to identify gynecologic anti-cancer compounds using libraries of approved drugs and bioactive compounds (AID 1345084); also: nearly all actives have a fitted effect of over 55% in size
- conditions: Gynecologic cancer cell panel viability, ATPlite luminescence, 48 h; series mostly up to 57.5 µM
Results filed as inconclusive are left out. Calls of active or inactive are those of the source. The call rests on the fitted dose curve; in most records, active means well fitted cell-killing curve with a large enough effect; inconclusive means small, poorly fitted or top-dose-only effect, or effect the other way; inactive means flat fitted curve, though single readings scatter.
Respond with a class label; see t (active), f (inactive)

# input Field: outcome | Entry: O=C(O)c1cccnc1
# output f

# input Field: outcome | Entry: Cn1nnc2c(C(N)=O)ncn2c1=O
# output f

# input Field: outcome | Entry: COc1cc(NS(=O)(=O)c2ccc(N)cc2)nc(OC)n1
# output f

# input Field: outcome | Entry: Nc1[nH]c(=O)ncc1F
# output f

# input Field: outcome | Entry: C[C@@H]1CN(c2c(F)c(N)c3c(=O)c(C(=O)O)cn(C4CC4)c3c2F)C[C@H](C)N1
# output f

# input Field: outcome | Entry: O=P(O)(O)C(O)(Cc1cccnc1)P(=O)(O)O
# output f

# input Field: outcome | Entry: NC(N)=NC(N)=NCCc1ccccc1
# output t

# input Field: outcome | Entry: OC(Cn1cncn1)(Cn1cncn1)c1ccc(F)cc1F
# output f

# input Field: outcome | Entry: Cc1cccc(Nc2ccncc2S(=O)(=O)NC(=O)NC(C)C)c1
# output f

# input Field: outcome | Entry: O=NN(CCCl)C(=O)NC1CCCCC1
# output f

# input Field: outcome | Entry: CCOC(=O)[C@H](CCc1ccccc1)N[C@H]1CS[C@H](c2cccs2)CN(CC(=O)O)C1=O
# output f

# input Field: outcome | Entry: NC1(c2ccc(-c3nc4ccn5c(=O)[nH]nc5c4cc3-c3ccccc3)cc2)CCC1
# output t

# input Field: outcome | Entry: CCOCC(O)COc1ccc(NC(=O)CC[S+](C)C)cc1 (stereo not given)
# output f

# input Field: outcome | Entry: CCOC(=O)c1ccc(OC(=O)CCCCCN=C(N)N)cc1
# output f

# input Field: outcome | Entry: O=c1cc(O)c(Cl)c[nH]1
# output f
